# Tested on: Escherichia coli TOP10;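 further: peptides expressed intracellularly from a pBAD plasmid library in pooled LB shake-flask culture, induced with 0.3% L-arabinose, DNA abundance read by NGS, three biological replicates, DESeq2 with apeglm shrinkage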
# assayText: shrunken log2 fold change of peptide-encoding DNA abundance (4.5 h post-induction vs induction); higher = less antimicrobial activity (less host growth inhibition)
# experimentalContext: time post-induction: 4.5 h; library: site-saturation at positions 5, 18, 19, 20
Note: every record was labeled by where its shrunken log2 fold change sits among small value (below -0.1), mid value (-0.1 to below 0.06), large value (0.06 or more)

Q. Textbook exercise: identify the category of the sequence given here, RRIRRRPPRLPRPRPRPVMAPRP , according to its measured value.
A. large value

Q. Category of RRIRYRPPRLPRPRPRPNNHPRP , please.
A. small value

Q. Please report the category associated with RRIRYRPPRLPRPRPRPISFPRP , nothing else.
A. mid value

Q. Lab note: which band did RRIRERPPRLPRPRPRPFPDPRP land in?
A. mid value

Q. Could you tell me which band RRIRDRPPRLPRPRPRPHEEPRP belongs to?
A. large value

Q. Which shrunken log2 fold change category applies to RRIRLRPPRLPRPRPRPMDFPRP here?
A. mid value

Q. Bin? RRIRCRPPRLPRPRPRPFTLPRP
A. mid value

Q. Which category fits this record: RRIRERPPRLPRPRPRPLWLPRP
A. small value

Q. Into which bin does this sequence go? RRIRWRPPRLPRPRPRPDWAPRP
A. small value

Q. Which shrunken log2 fold change category applies to RRIRNRPPRLPRPRPRPDIPPRP here?
A. small value

Q. Entry RRIRSRPPRLPRPRPRPVVRPRP belongs to which category?
A. large value

Q. State the class of the sequence shown: RRIRARPPRLPRPRPRPDSAPRP
A. large value

Q. In plain terms, what class is RRIRDRPPRLPRPRPRPQQGPRP ?
A. mid value

Q. // return the class label for RRIRFRPPRLPRPRPRPPVQPRP
A. large value

Q. Bin this entry: RRIRMRPPRLPRPRPRPIKCPRP
A. mid value

Q. Which class is correct for the following sequence? RRIRRRPPRLPRPRPRPNELPRP
A. large value

Q. Into which category would you place RRIRWRPPRLPRPRPRPRWQPRP ?
A. mid value

Q. # classify by shrunken log2 fold change band: RRIRARPPRLPRPRPRPSHFPRP
A. mid value

Q. Assign a category based on measured shrunken log2 fold change for RRIRLRPPRLPRPRPRPGILPRP and give only the class name.
A. small value

Q. Band for the recorded shrunken log2 fold change of RRIRTRPPRLPRPRPRPPKAPRP ?
A. large value

Q. Which shrunken log2 fold change band matches RRIRDRPPRLPRPRPRPGYQPRP ?
A. mid value

Q. Sort RRIRFRPPRLPRPRPRPKFCPRP into one of the categories.
A. mid value

Q. Form: Item = RRIRERPPRLPRPRPRPDNRPRP ; Class = ?
A. mid value

Q. Field: class (shrunken log2 fold change) — entry: RRIRQRPPRLPRPRPRPHYKPRP
A. small value

Q. Sort RRIRERPPRLPRPRPRPAPPPRP into one of the categories.
A. large value

Q. Would you mind sorting RRIRPRPPRLPRPRPRPMGSPRP into the appropriate category?
A. mid value

Q. Into which bin does this sequence go? RRIRYRPPRLPRPRPRPKAHPRP
A. small value

Q. State the band of RRIRFRPPRLPRPRPRPYAYPRP
A. mid value

Q. For RRIRHRPPRLPRPRPRPVTYPRP , which shrunken log2 fold change bin applies?
A. small value

Q. Each sequence maps to one class by shrunken log2 fold change. Which class for RRIRDRPPRLPRPRPRPNAQPRP ?
A. large value

Q. Could you tell me which band RRIRIRPPRLPRPRPRPGTVPRP belongs to?
A. small value

Q. Classify this sequence: RRIRKRPPRLPRPRPRPITMPRP
A. small value

Q. Please indicate the class for RRIRFRPPRLPRPRPRPIFHPRP based on its shrunken log2 fold change.
A. small value

Q. Categorize the following entry: RRIRFRPPRLPRPRPRPAYCPRP
A. small value

Q. Into which category would you place RRIRERPPRLPRPRPRPCVYPRP ?
A. small value

Q. Which category does the recorded shrunken log2 fold change put RRIRLRPPRLPRPRPRPQGGPRP in?
A. mid value

Q. Looking at RRIRVRPPRLPRPRPRPVPCPRP , which class would you pick?
A. small value

Q. Lab note: which band did RRIRKRPPRLPRPRPRPDVEPRP land in?
A. large value

Q. Quick check: band for RRIRCRPPRLPRPRPRPTVRPRP
A. large value

Q. Lab log: RRIRYRPPRLPRPRPRPKTEPRP — assign shrunken log2 fold change category
A. mid value

Q. For this sequence, which bin applies? RRIRVRPPRLPRPRPRPPWHPRP
A. large value

Q. Exercise: read the entry RRIRWRPPRLPRPRPRPSEEPRP and state which class it falls under.
A. large value

Q. Given RRIRFRPPRLPRPRPRPVSMPRP , name the class its shrunken log2 fold change places it in.
A. large value

Q. Lab note: which band did RRIRCRPPRLPRPRPRPANAPRP land in?
A. mid value

Q. Place this sequence in its band: RRIRKRPPRLPRPRPRPVGLPRP
A. large value

Q. Assign a bin to RRIRHRPPRLPRPRPRPDFEPRP
A. large value

Q. Lab note: which band did RRIRVRPPRLPRPRPRPKMLPRP land in?
A. small value

Q. Lab log: RRIRGRPPRLPRPRPRPYVRPRP — assign shrunken log2 fold change category
A. small value

Q. For this sequence, which bin applies? RRIRHRPPRLPRPRPRPHDYPRP
A. mid value

Q. For RRIRCRPPRLPRPRPRPKVNPRP , which shrunken log2 fold change bin applies?
A. small value

Q. Which bin, given its shrunken log2 fold change, does RRIRYRPPRLPRPRPRPYVTPRP occupy?
A. small value

Q. Please classify: RRIRTRPPRLPRPRPRPLLYPRP
A. small value

Q. Which band does RRIRDRPPRLPRPRPRPNFMPRP fall in?
A. small value

Q. Quick check: band for RRIRKRPPRLPRPRPRPMWVPRP
A. small value

Q. Would you mind sorting RRIRRRPPRLPRPRPRPFDNPRP into the appropriate category?
A. small value

Q. Please classify: RRIRMRPPRLPRPRPRPKDKPRP
A. large value

Q. Class label required: RRIRGRPPRLPRPRPRPCCPPRP
A. mid value

Q. Form field 'band' for RRIRQRPPRLPRPRPRPCACPRP
A. mid value

Q. Any idea which band RRIRTRPPRLPRPRPRPFVHPRP is in?
A. small value

Q. Hi, small favor: classify RRIRGRPPRLPRPRPRPQTKPRP by its shrunken log2 fold change when you get a moment.
A. large value

Q. Which class does RRIRARPPRLPRPRPRPNWLPRP fall in?
A. large value

Q. Please indicate the class for RRIRCRPPRLPRPRPRPEVEPRP based on its shrunken log2 fold change.
A. large value
